- Tested on: PBMC
- runDescription: Induction of apoptosis in human PBMC assessed as apoptotic index at 100 uM after 1 hr by Annexin V/propidium iodide staining-based FACS analysis relative to IVIg
- Assay type: cell-based
- conditionContext: in the assay text read “relative to vehicle” for “relative to IVIg”
Kindly apply the following: condition met if Ratio is less than 1, condition not met in every other case.

Sample answers from the record:
Cc1cc(COc2cc(C)nn2-c2ccccc2)n(-c2ccccc2)n1 :: condition met
Cc1cc(OCC2CCCN2Cc2ccccc2)n(-c2ccccc2)n1 (stereo unspecified) :: condition met
Cc1cc(CNCc2cc(C)nn2-c2ccccc2)n(-c2ccccc2)n1 :: condition met

Say whether its Ratio is strictly beneath 1. Entry: `Cc1cc(SSc2cc(C)nn2-c2ccccc2)n(-c2ccccc2)n1` condition not met

Criterion: Ratio strictly below 1. Is it met by `Cc1cc(O)n(Cc2cc(C)nn2-c2ccccc2)n1` ? condition not met

Is Ratio of `Cc1cc(OCc2cc(C)nn2-c2ccccc2)n(CC2CCCCC2)n1` strictly below 1? condition not met

Please check: Ratio for `Cc1cc(COc2cc(C)nn2-c2ccc([N+](=O)[O-])cc2)n(-c2ccccc2)n1` , strictly under 1 or not? condition met

Strictly below 1: is that where Ratio of `Cc1cc(CCc2cc(C)nn2-c2ccccc2)n(-c2ccccc2)n1` sits? condition met

----------
- runDescription: Basic dissociation constant, pKa of the compound at 10 mM
- Assay type: physicochemical
measuredQuantity: pKa at 10000 µM
Just the number, please, no unit after it.

Here's what some known entries look like.
Cc1cc(O)n(Cc2cc(C)nn2-c2ccccc2)n1 :: 2.3
Cc1cc(COc2cc(C)nn2C2CCCC2)n(-c2ccccc2)n1 :: 2.7

For the compound shown here, `Cc1cc(OCc2cc(C)nn2-c2ccccc2)n(CC2CCCCC2)n1` , give the reported pKa at 10000 µM. 3.6

Which pKa at 10000 µM value belongs to `Cc1cc(COc2cc(C)nn2-c2ccc([N+](=O)[O-])cc2)n(-c2ccccc2)n1` ? 2

Report pKa at 10000 µM for `Cc1cc(COc2cc(C)nn2-c2ccccc2)n(Cc2ccccc2)n1` please. 2.1

Looking for the measured pKa at 10000 µM of `Cc1nn(-c2ccccc2)c(SSc2c(C(=O)c3ccccc3)c(C)nn2-c2ccccc2)c1C(=O)c1ccccc1` , can you help? 3.2

----------
- System: PBMC
- runDescription: Inhibition of human PBMC-induced phagocytosis of antibody-opsonized RBC at 5 uM incubated for 1 hr prior to RBC addition measured after 2 hrs by phase-contrast microscopy
- Assay type: functional
Items are presented alongside their recorded inhibition at 5 µM.
The reply must contain the numeric value and, after it, the unit.

Observe how each entry below is paired with its result.
Cc1cc(COc2cc(C)nn2-c2ccccc2)n(Cc2ccccc2)n1 :: 0%
Cc1cc(COc2cc(C)nn2-c2ccc([N+](=O)[O-])cc2)n(-c2ccccc2)n1 :: 16%
Cc1cc(SSc2cc(C)nn2-c2ccccc2)n(-c2ccccc2)n1 :: 45%
Cc1cc(CCc2cc(C)nn2-c2ccccc2)n(-c2ccccc2)n1 :: 14%
Cc1cc(COc2cc(C)nn2-c2ccccc2)n(-c2ccccc2)n1 :: 16%
Cc1cc(Oc2c(N)c(C)nn2-c2ccccc2)n(-c2ccccc2)n1 :: 2%

Param readout = inhibition at 5 µM; param system = PBMC; param query = `Cc1cc(O)n(Cc2cc(C)nn2-c2ccccc2)n1` ; response: value 58%

Observed inhibition at 5 µM on PBMC for `Cc1cc(OCc2cc(C)nn2-c2ccccc2)n(CC(=O)O)n1` , please. 10%

API: value(readout=inhibition at 5 µM, system=PBMC) for record `Cc1nn(-c2ccccc2)c(S)c1C(=O)c1ccccc1` 0%

Form: Entry = `Cc1cc(OCc2cc(C)nn2-c2ccccc2)[nH]n1` | System = PBMC | inhibition at 5 µM = ____ 6%

Form entry - test system: PBMC; read-out: inhibition at 5 µM; molecule: `Cc1cc(OCc2cc(C)nn2-c2ccccc2)n(CC2CCCCC2)n1` 45%
